Hey, just so you know, these numbers are from ChEMBL document CHEMBL1147705.

- assay_system: C-X-C chemokine receptor type 2 (Homo sapiens, UniProt P25025)
- Sequence (P25025 whole entry): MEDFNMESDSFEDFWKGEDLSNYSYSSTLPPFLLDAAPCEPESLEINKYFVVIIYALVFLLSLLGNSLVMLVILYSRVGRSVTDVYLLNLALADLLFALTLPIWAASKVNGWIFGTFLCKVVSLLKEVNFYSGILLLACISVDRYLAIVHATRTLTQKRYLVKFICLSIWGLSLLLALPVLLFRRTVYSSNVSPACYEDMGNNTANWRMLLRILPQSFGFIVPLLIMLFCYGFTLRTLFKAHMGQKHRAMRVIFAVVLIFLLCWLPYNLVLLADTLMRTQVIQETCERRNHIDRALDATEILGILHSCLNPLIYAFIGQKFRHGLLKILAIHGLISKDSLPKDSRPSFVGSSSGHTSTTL
- method: Binding affinity to human CXCR2 receptor transfected in CHO cell
assay_endpoint: Ki

* CCCCc1cc(N[C@@H](CC(C)C)C(=O)NCCCOCC)nc(-n2cncn2)n1 | > 10000 nM
* CCCCCCc1cc(N[C@@H](CC(C)C)C(=O)NCCCOCC)nc(-n2ccnc2)n1 | 290 nM

Lookup: Consider the compound shown here: CCCCc1cc(N[C@@H](CC(C)C)C(=O)NCCCOCC)nc(-c2cccnc2)n1 What is its recorded Ki?
Found: 750 nM

Lookup: Quick one: Ki of CCCCc1cc(N[C@@H](CC(C)C)C(=O)NCCCOCC)nc(-n2cnc(C(C)(C)C)c2)n1 ?
Found: 85 nM

Lookup: # lookup: Ki of CCOCCCNC(=O)[C@H](CC(C)C)Nc1cc(CC)nc(-n2cnc(-c3ccc(OC(F)(F)F)cc3)c2)n1
Found: 57 nM

---

- method: Clearance in rat at 4 umol/kg, iv and po
- Type: ADME, organism-based
- condition_notes: in vivo
assay_endpoint: clearance (mL/min/kg)
Reply numerically in mL/min/kg, unit not repeated.

Lookup: Using the record for CCCc1cc(N[C@@H](CC(C)C)C(=O)NCCCOCC)nc(-n2cnc(-c3ccc(OC(F)(F)F)cc3)c2)n1 , report its clearance.
Found: 9.83

---

- method: Oral bioavailability in rat at […], iv and po
- Format: ADME, organism-based
- condition_notes: in vivo
assay_endpoint: bioavailability (%)
API: value field is a number in %; no unit string.

Reference set, count: 3
• CCOCCCNC(=O)[C@H](CC(C)C)Nc1ccnc(-n2cnc(-c3ccc(OC(F)(F)F)cc3)c2)n1 = 4
• CCCCc1cc(N[C@@H](CC(C)C)C(=O)NCCCOCC)nc(-n2cnc(-c3ccc(OC(F)(F)F)cc3)c2)n1 = 7
• CCCc1cc(N[C@@H](CC(C)C)C(=O)NCCCOCC)nc(-n2cnc(-c3cccc(OC(F)(F)F)c3)c2)n1 = 7

Lookup: Requested field: bioavailability. Item: CCCc1cc(N[C@@H](CC(C)C)C(=O)NCCCOCC)nc(-n2cnc(-c3ccccc3OC(F)(F)F)c2)n1
Found: 5

---

- method: AUC (infinity) in rat at 4 umol/kg, po
- Format: ADME, organism-based
- Set-up: dose 4 umol/kg, route oral, time infinity
- condition_notes: plasma
assay_endpoint: AUC(0-inf)

Lookup: Form field: reported AUC(0-inf) of CCCc1cc(N[C@@H](CC(C)C)C(=O)NCCCOCC)nc(-n2cnc(-c3ccc(OC(F)(F)F)cc3)c2)n1
Found: 2.43 µM·h

---

- method: Stability in rat liver microsome at 10 uM after 30 min
- Type: ADME
- condition_notes: liver microsomes, read-out: Stability
Below: a set of entries, each annotated with reported remaining at 0.5 h, 10 µM.
Give the value, in units of %, as a plain number.

Example compounds with recorded remaining at 0.5 h, 10 µM:
* CCCCc1cc(N[C@@H](CC(C)C)C(=O)NCCCOCC)nc(-n2cnc(-c3ccc(C(F)(F)F)cc3)c2)n1 | 80
* CCCCc1cc(N[C@@H](CC(C)C)C(=O)NCCCOCC)nc(-n2cnc(C)c2)n1 | 25
* CCCCc1cc(N[C@@H](CC(C)C)C(=O)NCCCOCC)nc(-n2cnc(-c3ccc(C#N)cc3)c2)n1 | 50
* CCCCc1cc(N[C@@H](CC(C)C)C(=O)NCCCOCC)nc(-n2cnc(-c3ccc(F)cc3)c2)n1 | 20
* CCCCc1cc(N[C@@H](CC(C)C)C(=O)NCCCOCC)nc(-c2ccncc2)n1 | 52
* CCCCc1cc(N[C@@H](CC(C)C)C(=O)NCCCOCC)nc(-n2ccnc2)n1 | 68
* CCCc1cc(N[C@@H](CC(C)C)C(=O)NCCCOCC)nc(-n2cnc(-c3cccc(OC(F)(F)F)c3)c2)n1 | 55
* CCCCCCCCSc1cc(N[C@@H](CC(C)C)C(=O)NCCCOCC)nc(-n2ccnc2)n1 | 26

Moving on to the next compound.
Lookup: For CCOCCCNC(=O)[C@H](CC(C)C)Nc1cc(C(C)(C)C)nc(-n2ccnc2)n1 , what is its reported remaining at 0.5 h, 10 µM?
Found: 83
